biological target: HLA-A*30:01; test: IEDB peptide-MHC binding, purified MHC/competitive/radioactivity; filed as Kd, often an IC50 or EC50 that approximates it; bounds were set here for any values at or beyond the usual limits of such assays; details: source organism: Dengue virus 4 Dominica/814669/1981
observable: Kd (nM)
API: value field is a number in nM; no unit string.

ASRRSWPLN	50.2

Kd in this record for "DTVTYKCPLL" : 3080

====

target: HLA-A*02:50; experiment: IEDB peptide-MHC binding, purified MHC/competitive/fluorescence; filed as Kd, often an IC50 or EC50 that approximates it; bounds were set here for any values at or beyond the usual limits of such assays; conditions: source organism: Corynebacterium glutamicum ATCC 13032
observable: Kd

Reported Kd of "FLPGQYMNI" : ≤ 0.1 nM
